PROTOCOL DESCRIPTION: Determination of equilibrium solubility
Assay type: physicochemical
REPORTED CONDITIONS: 37 °C, thermodynamic from solid; Pure water; 37±2° C., 24 h; based on azilsartan
MEASURED METRIC: solubility thermodynamic at 24 h (µg/mL)
Answer with a number only, understood to be in µg/mL.

| COMPOUND | UNIT DESCRIPTOR | TEST RESULT |
| --- | --- | --- |
| CCOc1nc2cccc(C(=O)OC(C)OC(=O)OCc3nc(C)c(C)nc3C)c2n1Cc1ccc(-c2ccccc2-c2noc(=O)[nH]2)cc1 (centres unmarked) [QR01019, reference compound] | µg/mL | 0.74 |

// below: solubility thermodynamic at 24 h requested for another compound
Query :: Form field: reported solubility thermodynamic at 24 h of CCOc1nc2cccc(C(=O)OC(C)OC(=O)OCc3nc(C)c(C)nc3C)c2n1Cc1ccc(-c2ccccc2-c2noc(=O)[n-]2)cc1.[K+] (centres unmarked) [QR01019K]
Result :: 542

###

PROTOCOL DESCRIPTION: Determination of equilibrium solubility
Type: physicochemical
REPORTED CONDITIONS: 37 °C, aqueous buffer, thermodynamic from solid; pH 4.5 (acetate buffer); 37±2° C., 24 h; based on azilsartan
MEASURED METRIC: solubility thermodynamic at 24 h (µg/mL)
Answer with a number only, understood to be in µg/mL.

| COMPOUND | UNIT DESCRIPTOR | solubility thermodynamic at 24 h |
| --- | --- | --- |
| CCOc1nc2cccc(C(=O)OC(C)OC(=O)OCc3nc(C)c(C)nc3C)c2n1Cc1ccc(-c2ccccc2-c2noc(=O)[nH]2)cc1 (centres unmarked) [QR01019, reference compound] | µg/mL | 0.06 |

// below: solubility thermodynamic at 24 h requested for another compound
Query :: Form field: reported solubility thermodynamic at 24 h of CCOc1nc2cccc(C(=O)OC(C)OC(=O)OCc3nc(C)c(C)nc3C)c2n1Cc1ccc(-c2ccccc2-c2noc(=O)[n-]2)cc1.[K+] (centres unmarked) [QR01019K]
Result :: 2.3

###

PROTOCOL DESCRIPTION: Determination of equilibrium solubility
Format: physicochemical
REPORTED CONDITIONS: 37 °C, simulated gastric fluid, thermodynamic from solid; pH 1.0 (hydrochloric acid solution); 37±2° C., 24 h; based on azilsartan
Recorded solubility thermodynamic at 24 h by entry
Answer with a number only, understood to be in µg/mL.

| MOLECULE | solubility thermodynamic at 24 h / µg/mL |
| --- | --- |
| CCOc1nc2cccc(C(=O)OC(C)OC(=O)OCc3nc(C)c(C)nc3C)c2n1Cc1ccc(-c2ccccc2-c2noc(=O)[n-]2)cc1.[K+] (centres unmarked) [QR01019K] | 18.7 |

Query :: Form field: reported solubility thermodynamic at 24 h of CCOc1nc2cccc(C(=O)OC(C)OC(=O)OCc3nc(C)c(C)nc3C)c2n1Cc1ccc(-c2ccccc2-c2noc(=O)[nH]2)cc1 (centres unmarked) [QR01019, reference compound]
Result :: 2.01
